- testedOn: GPR44 (prostaglandin D2 receptor 2, DP2, CRTh2) (Homo sapiens, UniProt Q9Y5Y4)
- Construct: human recombinant GPR44 co-expressed with Gα16 in HEK293 cell membranes
- Sequence (Q9Y5Y4 whole entry): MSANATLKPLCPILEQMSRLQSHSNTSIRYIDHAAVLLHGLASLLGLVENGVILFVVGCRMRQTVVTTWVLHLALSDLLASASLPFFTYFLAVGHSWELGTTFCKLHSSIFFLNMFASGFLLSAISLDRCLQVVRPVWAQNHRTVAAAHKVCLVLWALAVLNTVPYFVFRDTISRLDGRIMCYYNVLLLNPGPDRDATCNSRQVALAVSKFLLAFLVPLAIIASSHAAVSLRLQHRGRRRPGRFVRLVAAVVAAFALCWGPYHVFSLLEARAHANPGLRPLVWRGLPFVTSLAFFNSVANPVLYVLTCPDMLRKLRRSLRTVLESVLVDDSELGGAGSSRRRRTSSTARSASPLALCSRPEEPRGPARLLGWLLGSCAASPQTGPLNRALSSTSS
- testDescription: [3H]PGD2 displacement SPA on HEK293 membranes; also displacement of [[…]-3H-phenoxy]-AZ12204657 by filtration (IC50 […])
propertyMeasured: pIC50
Numbers only, as −log10 of the molar value.

API: value(readout=pIC50, system=GPR44 (prostaglandin D2 receptor 2, DP2, CRTh2) (Homo sapiens, UniProt Q9Y5Y4)) for record C[C@H](Oc1ccc(Cl)cc1Oc1ccc(S(C)(=O)=O)cc1Cl)C(=O)O [AZ12204657]
8.60
